// data source = PubChem BioAssay AID1963825

# experimental.protocol: Anticancer human tumor 997537-175-T-J1-PDC patient-derived colon adenocarcinoma cell line growth inhibition [POLQ];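 note: luminescence signal used as a surrogate for viable cells; spheroids exposed to drugs for seven days before readout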
# experimental.setup: 997537-175-T-J1-PDC complex spheroid viability, combination with POLQ inhibitors; second compound 1 µM; first compound 0.0316 µM; active compounds read low
property.name: viability, T/C

Here's what some known entries look like.
{"columns": ["compound", "viability, T/C"],
 "data": [
  ["CCCS(=O)(=O)Nc1ccc(F)c(C(=O)c2c[nH]c3ncc(-c4ccc(Cl)cc4)cc23)c1F + Cc1cccc(N(C)C(=O)C2C(O)CCN2c2nc(C)cc(C(F)(F)F)c2C#N)c1", "102%"],
  ["COc1cc(C2c3cc4c(cc3C(OC3OC5COC(C)OC5C(O)C3O)C3COC(=O)C23)OCO4)cc(OC)c1O (stereo unspecified) + Cc1cccc(N(C)C(=O)C2C(O)CCN2c2nc(C)cc(C(F)(F)F)c2C#N)c1", "103%"],
  ["C=CCn1c(=O)c2cnc(Nc3ccc(N4CCN(C)CC4)cc3)nc2n1-c1cccc(C(C)(C)O)n1 + Nc1ccc(C#CCN(C(=O)Cc2ncc(C(F)(F)F)cc2C(F)(F)F)c2ccc(F)cc2)nn1", "94.4%"]
]}

Please supply viability, T/C for each of the following items, keeping them in order.
1. O=C(Nc1ccc(O)c(NS(=O)(=O)c2ccc(F)cc2)c1)c1ccc(-c2ccccc2)cc1 + Nc1ccc(C#CCN(C(=O)Cc2ncc(C(F)(F)F)cc2C(F)(F)F)c2ccc(F)cc2)nn1
2. CCc1c2c(nc3ccc(O)cc13)-c1cc3c(c(=O)n1C2)COC(=O)[C@]3(O)CC + COC1C(OC(N)=O)C(O)C(Oc2ccc3c(O)c(NC(=O)c4ccc(O)c(CC=C(C)C)c4)c(=O)oc3c2C)OC1(C)C
3. COc1cccc2c1C(=O)c1c(O)c3c(c(O)c1C2=O)CC(O)(C(=O)CO)CC3OC1CC(N)C(O)C(C)O1 (stereo unspecified) + COC1C(OC(N)=O)C(O)C(Oc2ccc3c(O)c(NC(=O)c4ccc(O)c(CC=C(C)C)c4)c(=O)oc3c2C)OC1(C)C

1: 105%; 2: 32.1%; 3: 94.7%

Please supply viability, T/C for each of the following items, keeping them in order.
1. Nc1ccn(C2OC(CO)C(O)C2(F)F)c(=O)n1 (stereo unspecified) + COC1C(OC(N)=O)C(O)C(Oc2ccc3c(O)c(NC(=O)c4ccc(O)c(CC=C(C)C)c4)c(=O)oc3c2C)OC1(C)C
2. C=CCn1c(=O)c2cnc(Nc3ccc(N4CCN(C)CC4)cc3)nc2n1-c1cccc(C(C)(C)O)n1 + COC1C(OC(N)=O)C(O)C(Oc2ccc3c(O)c(NC(=O)c4ccc(O)c(CC=C(C)C)c4)c(=O)oc3c2C)OC1(C)C
3. Cn1ncnc1[C@H]1c2n[nH]c(=O)c3cc(F)cc(c23)N[C@@H]1c1ccc(F)cc1 + Cc1cccc(N(C)C(=O)C2C(O)CCN2c2nc(C)cc(C(F)(F)F)c2C#N)c1
4. O=C(Nc1ccc(O)c(NS(=O)(=O)c2ccc(F)cc2)c1)c1ccc(-c2ccccc2)cc1 + COC1C(OC(N)=O)C(O)C(Oc2ccc3c(O)c(NC(=O)c4ccc(O)c(CC=C(C)C)c4)c(=O)oc3c2C)OC1(C)C
5. CCCS(=O)(=O)Nc1ccc(F)c(C(=O)c2c[nH]c3ncc(-c4ccc(Cl)cc4)cc23)c1F + Nc1ccc(C#CCN(C(=O)Cc2ncc(C(F)(F)F)cc2C(F)(F)F)c2ccc(F)cc2)nn1
6. COc1cccc(OCCCN)c1-c1cc(Nc2cnc(C#N)cn2)n[nH]1 + Nc1ccc(C#CCN(C(=O)Cc2ncc(C(F)(F)F)cc2C(F)(F)F)c2ccc(F)cc2)nn1
7. CC1COCCN1c1cc(C2(O)CC3CCC(C2)O3)c2cnn(-c3ccn[nH]3)c2n1 (stereo unspecified) + Cc1cccc(N(C)C(=O)C2C(O)CCN2c2nc(C)cc(C(F)(F)F)c2C#N)c1

1. 106%
2. 98.2%
3. 98.3%
4. 98.3%
5. 84.9%
6. 50.3%
7. 86.8%

Please supply viability, T/C for each of the following items, keeping them in order.
1. CCc1cc2c(N3CCc4c(cc(Cn5ccnc5)cc4-c4cn(C)nc4C(F)(F)F)C3=O)cc(C)nc2c(OC)n1 + Cc1cccc(N(C)C(=O)C2C(O)CCN2c2nc(C)cc(C(F)(F)F)c2C#N)c1
2. CC[C@@]1(O)C(=O)OCc2c1cc1n(c2=O)Cc2cc3c(CN(C)C)c(O)ccc3nc2-1 + Nc1ccc(C#CCN(C(=O)Cc2ncc(C(F)(F)F)cc2C(F)(F)F)c2ccc(F)cc2)nn1
3. CC1COCCN1c1cc(C2(O)CC3CCC(C2)O3)c2cnn(-c3ccn[nH]3)c2n1 (stereo unspecified) + COC1C(OC(N)=O)C(O)C(Oc2ccc3c(O)c(NC(=O)c4ccc(O)c(CC=C(C)C)c4)c(=O)oc3c2C)OC1(C)C
4. O=c1[nH]cc(F)c(=O)[nH]1 + Cc1cccc(N(C)C(=O)C2C(O)CCN2c2nc(C)cc(C(F)(F)F)c2C#N)c1
5. CCc1c2c(nc3ccc(O)cc13)-c1cc3c(c(=O)n1C2)COC(=O)[C@]3(O)CC + Cc1cccc(N(C)C(=O)C2C(O)CCN2c2nc(C)cc(C(F)(F)F)c2C#N)c1
6. CCc1c2c(nc3ccc(O)cc13)-c1cc3c(c(=O)n1C2)COC(=O)[C@]3(O)CC + Nc1ccc(C#CCN(C(=O)Cc2ncc(C(F)(F)F)cc2C(F)(F)F)c2ccc(F)cc2)nn1

1: 91.2%; 2: 83.9%; 3: 82.9%; 4: 104%; 5: 33.5%; 6: 33.9%

Please supply viability, T/C for each of the following items, keeping them in order.
1. CCCS(=O)(=O)Nc1ccc(F)c(C(=O)c2c[nH]c3ncc(-c4ccc(Cl)cc4)cc23)c1F + COC1C(OC(N)=O)C(O)C(Oc2ccc3c(O)c(NC(=O)c4ccc(O)c(CC=C(C)C)c4)c(=O)oc3c2C)OC1(C)C
2. CC1COCCN1c1cc(-c2ccnn2C)c2ccnc(-c3ccn[nH]3)c2n1 (stereo unspecified) + Nc1ccc(C#CCN(C(=O)Cc2ncc(C(F)(F)F)cc2C(F)(F)F)c2ccc(F)cc2)nn1

["86.4%", "93.1%"]
